measurement.protocol: Stability of cannabinoid compounds and Vitamin E components in Beverage 1 (AB White) by LCMSMS
Type: physicochemical
assay.setup: AB White stored at 21-25° C.; 17 days
Stability of Plant-Derived Cannabinoid Compounds in AB White, 21-25° C. reference
measurement.name: Stability of Plant-Derived Cannabinoid Compounds in AB White, 21-25° C. (µg/mL)

>  <compound>
CCCCCc1cc2c(c(O)c1C(=O)O)[C@@H]1C=C(C)CC[C@H]1C(C)(C)O2 [D9 THCA, delta-9-tetrahydrocannabinolic acid]

>  <unit.of.measurement>
µg/mL

>  <reported.value>
0.919

$$$$
>  <compound>
CCCCCc1cc(O)c2c(c1)OC1(C)CCC3C1C2C3(C)C (centres unmarked)

>  <unit.of.measurement>
µg/mL

>  <reported.value>
0.554

$$$$
>  <compound>
CCCc1cc(O)c2c(c1)OC(C)(C)[C@@H]1CCC(C)=C[C@@H]21 [THCV, delta-9-tetrahydrocannabivarin]

>  <unit.of.measurement>
µg/mL

>  <reported.value>
3.51

$$$$
>  <compound>
CCCCCc1cc(O)c(C/C=C(\C)CCC=C(C)C)c(O)c1

>  <unit.of.measurement>
µg/mL

>  <reported.value>
4.80

$$$$
>  <compound>
CCCCCc1cc(O)c2c(c1)OC(C)(C)[C@@H]1CCC(C)=C[C@@H]21 [D9 THC, delta-9-tetrahydrocannabinol, reference compound]

>  <unit.of.measurement>
µg/mL

>  <reported.value>
11.9

$$$$

----------
measurement.protocol: Stability of cannabinoid compounds and Vitamin E components in Beverage 2 (AB Red) by LCMSMS
Assay type: physicochemical
assay.setup: stored at 8° C., 26 days
Recorded Stability of Plant-Derived Cannabinoid Compounds in AB Red by entry
measurement.name: Stability of Plant-Derived Cannabinoid Compounds in AB Red (µg/mL)

>  <compound>
CCCc1cc(O)c2c(c1)OC(C)(C)[C@@H]1CCC(C)=C[C@@H]21 [THCV, delta-9-tetrahydrocannabivarin]

>  <reported.value>
3.13

$$$$
>  <compound>
CCCCCc1cc(O)c2c(c1)OC(C)(CCC=C(C)C)C=C2 (stereo not drawn)

>  <reported.value>
0.287

$$$$
>  <compound>
C=C(C)[C@@H]1CCC(C)=C[C@H]1c1c(O)cc(CCC)cc1O

>  <reported.value>
0.199

$$$$
>  <compound>
C=C(C)[C@@H]1CCC(C)=C[C@H]1c1c(O)cc(CCCCC)c(C(=O)O)c1O

>  <reported.value>
1.63

$$$$
>  <compound>
CCCCCc1cc2c(c(O)c1C(=O)O)[C@@H]1C=C(C)CC[C@H]1C(C)(C)O2 [D9 THCA, delta-9-tetrahydrocannabinolic acid]

>  <reported.value>
1.33

$$$$
>  <compound>
CCCCCc1cc(O)c2c(c1)OC1(C)CCC3C1C2C3(C)C (stereo not drawn)

>  <reported.value>
0.502

$$$$
>  <compound>
CCCCCc1cc(O)c2c(c1)OC(C)(C)[C@@H]1CCC(C)=C[C@@H]21 [D9 THC, delta-9-tetrahydrocannabinol, reference compound]

>  <reported.value>
12.7

$$$$
>  <compound>
CCCCCc1cc(O)c2c(c1)OC(C)(C)c1ccc(C)cc1-2

>  <reported.value>
2.79

$$$$
>  <compound>
CCCCCc1cc(O)c(C/C=C(\C)CCC=C(C)C)c(O)c1

>  <reported.value>
4.68

$$$$

----------
measurement.protocol: Stability of cannabinoid compounds and Vitamin E components in Beverage 1 (AB White) by LCMSMS
Type: physicochemical
assay.setup: AB White stored at 21-25° C.; 19 days
param class (str): category from Stability of Plant-Derived Cannabinoid Compounds in AB White, 21-25° C.; see ranges L (below 0.6 µg/mL), M (0.6 µg/mL to below 4 µg/mL), H (4 µg/mL or more)

>  <compound>
CCCc1cc(O)c2c(c1)OC(C)(C)[C@@H]1CCC(C)=C[C@@H]21 [THCV, delta-9-tetrahydrocannabivarin]

>  <assigned.label>
M

$$$$
>  <compound>
C=C(C)[C@@H]1CCC(C)=C[C@H]1c1c(O)cc(CCCCC)c(C(=O)O)c1O

>  <assigned.label>
M

$$$$
>  <compound>
CCCCCc1cc(O)c2c(c1)OC(C)(CCC=C(C)C)C=C2 (stereo not drawn)

>  <assigned.label>
L

$$$$
>  <compound>
CCCCCc1cc(O)c2c(c1)OC(C)(C)c1ccc(C)cc1-2

>  <assigned.label>
M

$$$$
>  <compound>
CCCCCc1cc(O)c(C/C=C(\C)CCC=C(C)C)c(O)c1

>  <assigned.label>
H

$$$$
>  <compound>
C=C(C)[C@@H]1CCC(C)=C[C@H]1c1c(O)cc(CCC)cc1O

>  <assigned.label>
L

$$$$
>  <compound>
CCCCCc1cc(O)c2c(c1)OC1(C)CCC3C1C2C3(C)C (stereo not drawn)

>  <assigned.label>
L

$$$$
>  <compound>
CCCCCc1cc(O)c2c(c1)OC(C)(C)[C@@H]1CCC(C)=C[C@@H]21 [D9 THC, delta-9-tetrahydrocannabinol, reference compound]

>  <assigned.label>
H

$$$$
>  <compound>
CCCCCc1cc2c(c(O)c1C(=O)O)[C@@H]1C=C(C)CC[C@H]1C(C)(C)O2 [D9 THCA, delta-9-tetrahydrocannabinolic acid]

>  <assigned.label>
M

$$$$

----------
measurement.protocol: Stability of cannabinoid compounds and Vitamin E components in Beverage 2 (AB Red) by LCMSMS
Format: physicochemical
assay.setup: stored at 8° C., 210 days
measurement.name: Stability of Plant-Derived Cannabinoid Compounds in AB Red (µg/mL)

>  <molecule>
CCCCCc1cc(O)c2c(c1)OC(C)(C)[C@@H]1CCC(C)=C[C@@H]21 [D9 THC, delta-9-tetrahydrocannabinol, reference compound]

>  <unit.of.measurement>
µg/mL

>  <reported.value>
12.3

$$$$
>  <molecule>
CCCCCc1cc(O)c2c(c1)OC1(C)CCC3C1C2C3(C)C (stereo not drawn)

>  <unit.of.measurement>
µg/mL

>  <reported.value>
0.490

$$$$
>  <molecule>
C=C(C)[C@@H]1CCC(C)=C[C@H]1c1c(O)cc(CCCCC)c(C(=O)O)c1O

>  <unit.of.measurement>
µg/mL

>  <reported.value>
1.65

$$$$
>  <molecule>
CCCCCc1cc(O)c2c(c1)OC(C)(C)c1ccc(C)cc1-2

>  <unit.of.measurement>
µg/mL

>  <reported.value>
2.69

$$$$
>  <molecule>
CCCc1cc(O)c2c(c1)OC(C)(C)[C@@H]1CCC(C)=C[C@@H]21 [THCV, delta-9-tetrahydrocannabivarin]

>  <unit.of.measurement>
µg/mL

>  <reported.value>
3.15

$$$$
>  <molecule>
CCCCCc1cc2c(c(O)c1C(=O)O)[C@@H]1C=C(C)CC[C@H]1C(C)(C)O2 [D9 THCA, delta-9-tetrahydrocannabinolic acid]

>  <unit.of.measurement>
µg/mL

>  <reported.value>
1.33

$$$$
>  <molecule>
C=C(C)[C@@H]1CCC(C)=C[C@H]1c1c(O)cc(CCC)cc1O

>  <unit.of.measurement>
µg/mL

>  <reported.value>
0.193

$$$$
>  <molecule>
CCCCCc1cc(O)c(C/C=C(\C)CCC=C(C)C)c(O)c1

>  <unit.of.measurement>
µg/mL

>  <reported.value>
4.60

$$$$
>  <molecule>
CCCCCc1cc(O)c2c(c1)OC(C)(CCC=C(C)C)C=C2 (stereo not drawn)

>  <unit.of.measurement>
µg/mL

>  <reported.value>
0.282

$$$$

----------
measurement.protocol: Stability of cannabinoid compounds and Vitamin E components in Beverage 2 (AB Red) by LCMSMS
Type: physicochemical
assay.setup: stored at 8° C., 510 days
Lab note - cut at 3 µg/mL for Stability of Plant-Derived Cannabinoid Compounds in AB Red: 1 (yes) if strictly below, 0 (no) if not.

>  <molecule>
CCCCCc1cc2c(c(O)c1C(=O)O)[C@@H]1C=C(C)CC[C@H]1C(C)(C)O2 [D9 THCA, delta-9-tetrahydrocannabinolic acid]

>  <assigned.label>
1 (yes)

$$$$
>  <molecule>
CCCCCc1cc(O)c2c(c1)OC(C)(C)c1ccc(C)cc1-2 [CBN, cannabinol]

>  <assigned.label>
1 (yes)

$$$$
>  <molecule>
CCCCCc1cc(O)c(C/C=C(\C)CCC=C(C)C)c(O)c1 [CBG, cannabigerol]

>  <assigned.label>
0 (no)

$$$$
>  <molecule>
C=C(C)[C@@H]1CCC(C)=C[C@H]1c1c(O)cc(CCC)cc1O [CBDV, cannabidivarin]

>  <assigned.label>
1 (yes)

$$$$
>  <molecule>
CCCCCc1cc(O)c2c(c1)OC(C)(C)[C@@H]1CCC(C)=C[C@@H]21 [D9 THC, delta-9-tetrahydrocannabinol, reference compound]

>  <assigned.label>
0 (no)

$$$$
>  <molecule>
CCCCCc1cc(O)c2c(c1)OC(C)(CCC=C(C)C)C=C2 (stereo not drawn) [CBC, cannabichromene]

>  <assigned.label>
1 (yes)

$$$$
>  <molecule>
C=C(C)[C@@H]1CCC(C)=C[C@H]1c1c(O)cc(CCCCC)c(C(=O)O)c1O [CBDA, cannabidiolic acid]

>  <assigned.label>
1 (yes)

$$$$
>  <molecule>
CCCCCc1cc(O)c2c(c1)OC1(C)CCC3C1C2C3(C)C (stereo not drawn) [CBL, cannabicyclol]

>  <assigned.label>
1 (yes)

$$$$
